// provenance: patent US20210284668A1

Tested on: E. faecalis UCN41
Experiment: MIC by microdilution, E. faecalis UCN41
Format: cell-based, Enterococcus faecalis
Design: unit not given here
Details: E. faecalis UCN41 (VanA positive, glycopeptide resistant), in duplicate
test readout: Minimal Inhibitory Concentration (MIC)

// solved cases for Minimal Inhibitory Concentration (MIC) follow
1) CC[P+](CC)(CC)[Au-][c]1nn[nH]c1CNC(=O)CCCC[C@@H]1SC[C@@H]2NC(=O)N[C@@H]21: 1
2) O=C(CCc1cnn[nH]1)N[C@@H](C(=O)O)c1ccccc1: >8
3) CC[P+](CC)(CC)[Au-][c]1nn[nH]c1CCC(=O)NC(C(=O)NC1C(=O)N2C1SC(C)(C)C2C(=O)O)c1ccccc1 (centres unmarked): 0.5
4) CC[P+](CC)(CC)[Au-][c]1nn[nH]c1COC(=O)NC(C(=O)OC(C)(C)C)c1ccccc1 (centres unmarked): 2

Below are some molecules; for each one, tell me its Minimal Inhibitory Concentration (MIC).
1. CC[P+](CC)(CC)[Au-][c]1nn[nH]c1-c1ccc(C(=O)O)cn1
2. C#CCNc1c(F)cc2c(=O)c(C(=O)O)cn3c2c1OCC3C (centres unmarked)
3. CC[P+](CC)(CC)[Au-][c]1nn[nH]c1COC(=O)NC(C(=O)O)c1ccccc1 (centres unmarked) [TMB45]
4. CC[P+](CC)(CC)[Au-][c]1nn[nH]c1CNC(=O)NC(C(=O)NC1C(=O)N2C1SC(C)(C)C2C(=O)O)c1ccccc1 (centres unmarked)

1. 0.25
2. >8
3. 0.25
4. 0.25

List Minimal Inhibitory Concentration (MIC) for every entry below, keeping the order given.
1. O=C(N[C@@H](C(=O)O)c1ccccc1)OCc1cnn[nH]1
2. CC[P+](CC)(CC)[Au-][c]1nn[nH]c1COC(=O)NC(C(=O)O)c1ccccc1 (centres unmarked) [TMB1]
3. CC[P+](CC)(CC)[Au-][c]1nn[nH]c1CN1CCN(C)CC1
4. CC1(C)S[C@@H]2[C@H](NC(=O)[C@H](NC(=O)CCc3cn(Cc4ccccc4)nn3)c3ccccc3)C(=O)N2[C@H]1C(=O)O
5. CC[P+](CC)(CC)[Au-][c]1nn[nH]c1-c1ccc(C(=O)NC(C(=O)NC2C(=O)N3C2SC(C)(C)C3C(=O)O)c2ccccc2)cc1 (centres unmarked)
6. CC[P+](CC)(CC)[Au-][c]1nn[nH]c1-c1ccc(C(=O)NC(C(=O)O)c2ccccc2)cc1 (centres unmarked)

>8
0.5
1
8
1
0.125
